ASSAYED_TARGET: full length NS3 protein noncovalently complexed with the full-length NS4A cofactor protein (NS3/NS4A complex) (Hepatitis C virus genotype 1b, UniProt P26663)
Construct: full length NS3 protein spanning residues 1027–1657 of the HCV polyprotein
Sequence (P26663 1027-1657): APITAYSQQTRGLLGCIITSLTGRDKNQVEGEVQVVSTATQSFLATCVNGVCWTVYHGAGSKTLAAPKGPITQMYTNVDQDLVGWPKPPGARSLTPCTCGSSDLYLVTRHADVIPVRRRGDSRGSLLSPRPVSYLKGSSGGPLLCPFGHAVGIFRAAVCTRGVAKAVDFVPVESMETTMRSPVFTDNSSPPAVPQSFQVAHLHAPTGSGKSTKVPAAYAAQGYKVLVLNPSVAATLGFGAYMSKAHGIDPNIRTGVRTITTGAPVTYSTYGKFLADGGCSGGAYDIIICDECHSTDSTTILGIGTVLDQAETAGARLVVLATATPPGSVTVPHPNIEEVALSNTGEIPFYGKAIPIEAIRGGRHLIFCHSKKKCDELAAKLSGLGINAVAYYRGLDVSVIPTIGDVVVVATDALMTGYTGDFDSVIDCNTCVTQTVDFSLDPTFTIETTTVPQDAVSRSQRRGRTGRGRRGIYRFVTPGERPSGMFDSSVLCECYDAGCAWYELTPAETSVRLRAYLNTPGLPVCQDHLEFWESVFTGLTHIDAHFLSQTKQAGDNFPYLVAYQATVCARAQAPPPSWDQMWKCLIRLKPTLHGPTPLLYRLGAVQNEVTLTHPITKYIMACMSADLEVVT
Sequence (P26663 1658-1711): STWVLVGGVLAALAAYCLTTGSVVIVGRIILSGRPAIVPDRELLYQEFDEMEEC
ASSAY_COMMENT: Full-length NS3-NS4A heterodimer protein assay (Assay A)
Assay type: biochemical, hepatitis C virus (HCV)
EXPERIMENTAL_PARAMETERS: Table 5; full-length NS3/NS4A; read-out: AssayA
OBSERVED_PROPERTY: IC50

These recorded examples may help you get a feel for the data.
STRUCTURE	IC50
CC(C)COC(=O)N[C@H](C(=O)N1C[C@H](c2ccccc2)C[C@H]1C(=O)N[C@@H](CC(F)F)C(=O)NCCc1ccc(C(=O)O)cc1)C(C)C	< 10 µM
CC(C)COC(=O)N[C@H](C(=O)N1C[C@H](c2ccccc2)C[C@H]1C(=O)N[C@@H](CS)C(=O)NCCc1ccc(C(=O)O)cc1Cl)C(C)C	< 1 µM

get_value(item= "CC(C)COC(=O)N[C@@H](CCC(=O)O)C(=O)N1C[C@H](OCc2ccccc2)C[C@H]1C(=O)N[C@@H](CS)C(=O)NCCc1ccccc1Cl" , readout=IC50) returns < 10 µM
